Where do the numbers come from? From PubChem BioAssay.

Test: probe aDKK1 binding to arrayed compounds – biochemical, biotinylated probe, 635/667 nm fluorescence, primary screen (AID 1099);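 also: score merges 667nm spot fluorescence with signal to noise across triplicate slides; reference of the scale not given here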
Conditions: small-molecule microarray, higher = more signal
observable: composite z-score

# count of solved cases: 5
molecule | composite z-score
C#CCNCc1ccccc1 | -0.192
O=C1O[C@@H](c2ccccc2)[C@@H](c2ccccc2)N2[C@@H](c3ccc(OCCO)cc3)[C@]3(C(=O)Nc4ccc(C#CC5=CCCCC5)cc43)[C@@H](C(=O)N3CCCCCCC3)[C@H]12 | 2.71
C[C@H]1C2[C@H](Cc3ccccc3)NC(=O)[C@]23C(=O)NCC(=O)N2CCC[C@H]2C(=O)NC/C=C/CCC/C=C/C3[C@@H]2O[C@]12C (some centres not stated) | -0.398
[N-]=[N+]=NCc1ccccc1C[C@@]1(C(=O)NCC(O)CO)N=C(c2ccc(OCCCO)cc2)O[C@@H]1c1ccccc1 (some centres not stated) | 1.15
COC(=O)[C@@]1(Cc2ccc(OC)cc2)[C@H]2c3cc(C(=O)N4CCCC4)n(CCSCCO)c3C[C@H]2CN1C(=O)c1ccccc1 | 0.852

For C=CC1c2cc(O)c(OC)cc2CCN1Cc1cccc(OC(F)(F)F)c1 (configuration not stated) the molecule record lists composite z-score as -0.0819

For `COc1ccc(C(=O)Nc2cccc(CN3C(=O)[C@]4(O[C@H](CCn5cc(CCO)nn5)[C@@H]([Si](C)(C)c5ccc(OC)cc5)[C@@H]4C)c4ccccc43)c2)cc1` the molecule record lists composite z-score as 0.601
